Tested on: TRZAWR Wheat, Winter, cv Riband
Assay: Postemergence herbicidal evaluation, TRZAWR
Type: in vivo, Triticum aestivum
Design: scale not given here
Details: 0.016 kg/ha, postemergence spray, rated about two-three weeks after treatment
measured parameter: Postemergence herbicidal rating TRZAWR
# answer = number (no unit)

Take a look at these entries with their results.
Cc1ccc(O)c(-n2nnc3cc(F)c(-n4c(=O)cc(C(F)(F)F)n(C)c4=O)cc32)c1 ... 2.0
Cn1c(C(F)(F)F)cc(=O)n(-c2cc3c(cc2F)nnn3-c2ccc(OCC(=O)O)cc2)c1=O ... 4.0
COc1ccc(C)cc1-n1nnc2cc(F)c(-n3c(=O)cc(C(F)(F)F)n(C)c3=O)cc21 ... 4.5

**Q:** Return the recorded Postemergence herbicidal rating TRZAWR value; entry: CCc1ccc(-n2nnc3cc(F)c(-n4c(=O)cc(C(F)(F)F)n(C)c4=O)cc32)cc1
**A:** 3.5

====

Test system: ECHOG Barnyardgrass
Test: Preemergence herbicidal evaluation, ECHOG
Type: in vivo, Echinochloa crus-galli, (L.) Beau
Set-up: scale not given here
Conditions: preemergence, rate 0.062 kg/ha
From the text: The preemergence herbicidal activity of the test compounds of the present invention is exemplified by the following tests in which the seeds of a variety of monocotyledonous and dicotyledonous plants are separately mixed with potting soil and planted on top of approximately one inch of soil in separate pint cups. […] The treated cups are then placed on greenhouse benches, watered and cared for in accordance with conventional greenhouse procedures. […]
Here the recorded ECHCG herbicidal rating is given for each entry.
# answer = number (no unit)

Take a look at these entries with their results.
Cc1ccc(-n2nnc3cc(F)c(-n4c(=O)cc(C(F)(F)F)n(C)c4=O)cc32)cc1 ... 7.0
CC(C)c1ccc(-n2nnc3cc(F)c(-n4c(=O)cc(C(F)(F)F)n(C)c4=O)cc32)cc1 ... 1.0

**Q:** Return the recorded ECHCG herbicidal rating value; entry: CCc1ccc(-n2nnc3cc(F)c(-n4c(=O)cc(C(F)(F)F)n(C)c4=O)cc32)cc1
**A:** 6.3

**Q:** Return the recorded ECHCG herbicidal rating value; entry: Cc1cc(O)ccc1-n1nnc2cc(F)c(-n3c(=O)cc(C(F)(F)F)n(C)c3=O)cc21
**A:** 0.0

**Q:** Return the recorded ECHCG herbicidal rating value; entry: COC(=O)COc1ccc(-n2nnc3cc(F)c(-n4c(=O)cc(C(F)(F)F)n(C)c4=O)cc32)c(C)c1
**A:** 0.0

**Q:** Return the recorded ECHCG herbicidal rating value; entry: C=CCOc1ccc(-n2nnc3cc(F)c(-n4c(=O)cc(C(F)(F)F)n(C)c4=O)cc32)c(C)c1
**A:** 0.0

====

Here the recorded Postemergence herbicidal rating ABUTH is given for each entry.
Tested on: ABUTH Velvetleaf
Test: Postemergence herbicidal evaluation, ABUTH
Assay type: in vivo, Abutilon theophrasti, Medic.
Set-up: scale not given here
Settings: 0.032 kg/ha, postemergence spray, rated about two-three weeks after treatment
# answer = number (no unit)

Cc1ccc(O)cc1-n1nnc2cc(F)c(-n3c(=O)cc(C(F)(F)F)n(C)c3=O)cc21 [Example 32] ... 0.0
COc1ccc(-n2nnc3cc(F)c(-n4c(=O)cc(C(F)(F)F)n(C)c4=O)cc32)c(C)c1 [Example 24] ... 9.0
C=CCOc1ccc(C)cc1-n1nnc2cc(F)c(-n3c(=O)cc(C(F)(F)F)n(C)c3=O)cc21 [Example 42] ... 9.0

**Q:** Return the recorded Postemergence herbicidal rating ABUTH value; entry: Cc1ccccc1-n1nnc2cc(F)c(-n3c(=O)cc(C(F)(F)F)n(C)c3=O)cc21 [Example 20]
**A:** 9.0

**Q:** Return the recorded Postemergence herbicidal rating ABUTH value; entry: COc1ccc(-n2nnc3cc(F)c(-n4c(=O)cc(C(F)(F)F)n(C)c4=O)cc32)cc1 [Example 27]
**A:** 9.0

**Q:** Return the recorded Postemergence herbicidal rating ABUTH value; entry: Cc1ccc(OCC(=O)O)cc1-n1nnc2cc(F)c(-n3c(=O)cc(C(F)(F)F)n(C)c3=O)cc21 [Example 37]
**A:** 5.0

**Q:** Return the recorded Postemergence herbicidal rating ABUTH value; entry: COc1ccc(C)cc1-n1nnc2cc(F)c(-n3c(=O)cc(C(F)(F)F)n(C)c3=O)cc21 [Example 18]
**A:** 9.0

**Q:** Return the recorded Postemergence herbicidal rating ABUTH value; entry: CCc1ccc(-n2nnc3cc(F)c(-n4c(=O)cc(C(F)(F)F)n(C)c4=O)cc32)cc1COC [Example 28]
**A:** 9.0

====

Tested on: GLXMAW Soybean, Williams
Assay: Postemergence herbicidal evaluation, GLXMAW
Type: in vivo, Glycine max, (L.) Merr. cv Williams
Design: scale not given here
Settings: 0.032 kg/ha, postemergence spray, rated about two-three weeks after treatment
measured parameter: Postemergence herbicidal rating GLXMAW
# answer = number (no unit)

COc1ccc(Cl)cc1-n1nnc2cc(F)c(-n3c(=O)cc(C(F)(F)F)n(C)c3=O)cc21 ... 8.0
COC(=O)COc1ccccc1-n1nnc2cc(F)c(-n3c(=O)cc(C(F)(F)F)n(C)c3=O)cc21 ... 6.0
CCc1ccc(-n2nnc3cc(F)c(-n4c(=O)cc(C(F)(F)F)n(C)c4=O)cc32)cc1COC ... 6.0

Here is the next item to consider.
**Q:** Return the recorded Postemergence herbicidal rating GLXMAW value; entry: C=CCOc1ccc(-n2nnc3cc(F)c(-n4c(=O)cc(C(F)(F)F)n(C)c4=O)cc32)c(C)c1
**A:** 5.5

====

Test system: TRZAWR Wheat, Winter, cv Riband
Assay: Postemergence herbicidal evaluation, TRZAWR
Assay type: in vivo, Triticum aestivum
Design: scale not given here
Conditions: 0.016 kg/ha, postemergence spray, rated about two-three weeks after treatment
measured parameter: Postemergence herbicidal rating TRZAWR
# answer = number (no unit)

Take a look at these entries with their results.
COc1ccc(-n2nnc3cc(F)c(-n4c(=O)cc(C(F)(F)F)n(C)c4=O)cc32)c(C)c1 [Example 24] ... 2.5
COC(=O)C(C)Oc1ccc(C)cc1-n1nnc2cc(F)c(-n3c(=O)cc(C(F)(F)F)n(C)c3=O)cc21 (stereo not shown) [Example 41] ... 7.0
Cc1cc(O)ccc1-n1nnc2cc(F)c(-n3c(=O)cc(C(F)(F)F)n(C)c3=O)cc21 [Example 33] ... 1.0
C#CCOC(=O)COc1ccc(C)c(-n2nnc3cc(F)c(-n4c(=O)cc(C(F)(F)F)n(C)c4=O)cc32)c1 [Example 36] ... 5.0
C#CCOC(=O)COc1ccc(C)cc1-n1nnc2cc(F)c(-n3c(=O)cc(C(F)(F)F)n(C)c3=O)cc21 [Example 40] ... 5.0

**Q:** Return the recorded Postemergence herbicidal rating TRZAWR value; entry: Cc1ccc(-n2nnc3cc(F)c(-n4c(=O)cc(C(F)(F)F)n(C)c4=O)cc32)cc1C [Example 23]
**A:** 4.5

**Q:** Return the recorded Postemergence herbicidal rating TRZAWR value; entry: CC(C)c1ccc(-n2nnc3cc(F)c(-n4c(=O)cc(C(F)(F)F)n(C)c4=O)cc32)cc1 [Example 21]
**A:** 4.0

====

Test system: CASOB Sicklepod
Test: Postemergence herbicidal evaluation, CASOB
Type: in vivo, Cassia obtusifolia, L.
Set-up: scale not given here
Conditions: 0.032 kg/ha, postemergence spray, rated about two-three weeks after treatment
Here the recorded Postemergence herbicidal rating CASOB is given for each entry.
# answer = number (no unit)

COc1ccc(-n2nnc3cc(F)c(-n4c(=O)cc(C(F)(F)F)n(C)c4=O)cc32)c(C)c1 [Example 24] ... 0.0
Cc1ccccc1-n1nnc2cc(F)c(-n3c(=O)cc(C(F)(F)F)n(C)c3=O)cc21 [Example 20] ... 0.0
CCc1ccccc1-n1nnc2cc(F)c(-n3c(=O)cc(C(F)(F)F)n(C)c3=O)cc21 [Example 25] ... 0.0
CCc1cccc(-n2nnc3cc(F)c(-n4c(=O)cc(C(F)(F)F)n(C)c4=O)cc32)c1 [Example 29] ... 2.0
COc1ccc(C)c(-n2nnc3cc(F)c(-n4c(=O)cc(C(F)(F)F)n(C)c4=O)cc32)c1 [Example 22] ... 0.0
Cc1ccc(-n2nnc3cc(F)c(-n4c(=O)cc(C(F)(F)F)n(C)c4=O)cc32)cc1 [Example 19] ... 2.0

Here is the next item to consider.
**Q:** Return the recorded Postemergence herbicidal rating CASOB value; entry: COC(=O)COc1ccc(C)cc1-n1nnc2cc(F)c(-n3c(=O)cc(C(F)(F)F)n(C)c3=O)cc21 [Example 34]
**A:** 1.0

====

System: ECHOG Barnyardgrass
Assay: Postemergence herbicidal evaluation, ECHOG
Type: in vivo, Echinochloa crus-galli, (L.) Beau
Design: scale not given here
Settings: 0.016 kg/ha, postemergence spray, rated about two-three weeks after treatment
measured parameter: Postemergence herbicidal rating ECHCG
# answer = number (no unit)

COCc1ccccc1-n1nnc2cc(F)c(-n3c(=O)cc(C(F)(F)F)n(C)c3=O)cc21 [Example 26] ... 1.0
Cn1c(C(F)(F)F)cc(=O)n(-c2cc3c(cc2F)nnn3-c2ccc(OCC(=O)O)cc2)c1=O [Example 44] ... 4.0
COc1ccc(C)c(-n2nnc3cc(F)c(-n4c(=O)cc(C(F)(F)F)n(C)c4=O)cc32)c1 [Example 22] ... 0.0
Cc1ccc(-n2nnc3cc(F)c(-n4c(=O)cc(C(F)(F)F)n(C)c4=O)cc32)cc1 [Example 19] ... 0.0
COC(=O)COc1ccc(C)c(-n2nnc3cc(F)c(-n4c(=O)cc(C(F)(F)F)n(C)c4=O)cc32)c1 [Example 38] ... 0.0

**Q:** Return the recorded Postemergence herbicidal rating ECHCG value; entry: COc1ccc(-n2nnc3cc(F)c(-n4c(=O)cc(C(F)(F)F)n(C)c4=O)cc32)cc1 [Example 27]
**A:** 1.0

**Q:** Return the recorded Postemergence herbicidal rating ECHCG value; entry: C=CCOc1ccc(-n2nnc3cc(F)c(-n4c(=O)cc(C(F)(F)F)n(C)c4=O)cc32)c(C)c1 [Example 43]
**A:** 1.0
